Listing: TF-1/IL-13 IC50 of selected binders
Molecular target: T1, human IL-4 receptor alpha chain on cells (TF-1 cells, primary human T-cell blasts and B cells) (human, UniProt P24394 26-825)
T1 sequence (looked up): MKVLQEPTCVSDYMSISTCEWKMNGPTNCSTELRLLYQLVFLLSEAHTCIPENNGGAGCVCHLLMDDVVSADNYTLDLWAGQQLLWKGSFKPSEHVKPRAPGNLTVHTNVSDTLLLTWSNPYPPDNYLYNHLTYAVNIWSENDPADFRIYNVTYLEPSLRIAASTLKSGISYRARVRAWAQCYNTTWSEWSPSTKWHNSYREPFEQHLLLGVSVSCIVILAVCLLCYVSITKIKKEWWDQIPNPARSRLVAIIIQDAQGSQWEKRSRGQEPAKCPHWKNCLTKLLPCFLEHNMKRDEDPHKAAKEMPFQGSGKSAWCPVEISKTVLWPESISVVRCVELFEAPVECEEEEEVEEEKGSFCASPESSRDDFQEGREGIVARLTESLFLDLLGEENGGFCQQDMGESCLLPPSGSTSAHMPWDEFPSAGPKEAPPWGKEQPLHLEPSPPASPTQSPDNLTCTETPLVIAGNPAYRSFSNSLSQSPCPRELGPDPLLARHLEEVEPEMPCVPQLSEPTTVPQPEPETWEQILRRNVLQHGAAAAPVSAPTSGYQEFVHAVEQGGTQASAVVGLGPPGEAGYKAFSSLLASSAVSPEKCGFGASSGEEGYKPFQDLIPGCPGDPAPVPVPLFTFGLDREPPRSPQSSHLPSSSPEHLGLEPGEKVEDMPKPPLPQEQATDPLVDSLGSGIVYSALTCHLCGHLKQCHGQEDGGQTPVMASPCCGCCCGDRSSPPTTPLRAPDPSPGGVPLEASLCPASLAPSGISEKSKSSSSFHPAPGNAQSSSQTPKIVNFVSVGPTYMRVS
Assay: cell-based or functional assay
reportedMetric: TF-1/IL-13 IC50 (nM)

- binder: "IL4-RE-Q106C, PEGylated with linear 22 kD mPEG-maleimide (ligand, linear 22 kD methoxy-polyethylene glycol-maleimide on Cys 106 (numbered according to wild type IL-4), also called PEG-IL4RE) MHKCDITLQEIIKTLNSLTEQKTLCTELTVTDIFAASKNTTEKETFCRAATVLRQFYSHHEKDTRCLGATAQQFHRHKQLIRFLKRLDRNLWGLAGLNSCPVKEANCSTLENFLERLKTIMDEKDSKCSS"
  numericValue: 1.95
- binder: "IL4-RE-K37C, PEGylated with linear 22 kD mPEG-maleimide (ligand, linear 22 kD methoxy-polyethylene glycol-maleimide on Cys 37 (numbered according to wild type IL-4), also called PEG-IL4RE) MHKCDITLQEIIKTLNSLTEQKTLCTELTVTDIFAASCNTTEKETFCRAATVLRQFYSHHEKDTRCLGATAQQFHRHKQLIRFLKRLDRNLWGLAGLNSCPVKEANQSTLENFLERLKTIMDEKDSKCSS"
  numericValue: 1.22
- binder: "IL4-RE-A104C, PEGylated with linear 22 kD mPEG-maleimide (ligand, linear 22 kD methoxy-polyethylene glycol-maleimide on Cys 104 (numbered according to wild type IL-4), also called PEG-IL4RE) MHKCDITLQEIIKTLNSLTEQKTLCTELTVTDIFAASKNTTEKETFCRAATVLRQFYSHHEKDTRCLGATAQQFHRHKQLIRFLKRLDRNLWGLAGLNSCPVKECNQSTLENFLERLKTIMDEKDSKCSS"
  numericValue: 1.34
- binder: "IL-4RA (IL-4 double mutein R121D/Y124D, unPEGylated) (ligand, also called BAY 16-9996; IL-4DM) MHKCDITLQEIIKTLNSLTEQKTLCTELTVTDIFAASKNTTEKETFCRAATVLRQFYSHHEKDTRCLGATAQQFHRHKQLIRFLKRLDRNLWGLAGLNSCPVKEANQSTLENFLERLKTIMDEKDSKCSS"
  numericValue: 1.17
- binder: "IL4-RE-N105C, PEGylated with linear 22 kD mPEG-maleimide (ligand, linear 22 kD methoxy-polyethylene glycol-maleimide on Cys 105 (numbered according to wild type IL-4), also called PEG-IL4RE) MHKCDITLQEIIKTLNSLTEQKTLCTELTVTDIFAASKNTTEKETFCRAATVLRQFYSHHEKDTRCLGATAQQFHRHKQLIRFLKRLDRNLWGLAGLNSCPVKEACQSTLENFLERLKTIMDEKDSKCSS"
  numericValue: 2.11
- binder: "IL4-RE-T28C, PEGylated with linear 22 kD mPEG-maleimide (ligand, linear 22 kD methoxy-polyethylene glycol-maleimide on Cys 28 (numbered according to wild type IL-4), also called PEG-IL4RE) MHKCDITLQEIIKTLNSLTEQKTLCTELCVTDIFAASKNTTEKETFCRAATVLRQFYSHHEKDTRCLGATAQQFHRHKQLIRFLKRLDRNLWGLAGLNSCPVKEANQSTLENFLERLKTIMDEKDSKCSS"
  numericValue: 2.87
- binder: "IL4-RE-N38C, PEGylated with linear 22 kD mPEG-maleimide (ligand, linear 22 kD methoxy-polyethylene glycol-maleimide on Cys 38 (numbered according to wild type IL-4), also called PEG-IL4RE) MHKCDITLQEIIKTLNSLTEQKTLCTELTVTDIFAASKCTTEKETFCRAATVLRQFYSHHEKDTRCLGATAQQFHRHKQLIRFLKRLDRNLWGLAGLNSCPVKEANQSTLENFLERLKTIMDEKDSKCSS"
  numericValue: 1.24
- binder: "IL4-RE-S36C, PEGylated with linear 22 kD mPEG-maleimide (ligand, linear 22 kD methoxy-polyethylene glycol-maleimide on Cys 36 (numbered according to wild type IL-4), also called PEG-IL4RE) MHKCDITLQEIIKTLNSLTEQKTLCTELTVTDIFAACKNTTEKETFCRAATVLRQFYSHHEKDTRCLGATAQQFHRHKQLIRFLKRLDRNLWGLAGLNSCPVKEANQSTLENFLERLKTIMDEKDSKCSS"
  numericValue: 1.21

Sourced from patent US20090010874A1
